# target system: AxCT mask27 EpCAM H90.2 L064 version 1
readout type: Percent cleavage

protein | test result
MMP-12 (protein) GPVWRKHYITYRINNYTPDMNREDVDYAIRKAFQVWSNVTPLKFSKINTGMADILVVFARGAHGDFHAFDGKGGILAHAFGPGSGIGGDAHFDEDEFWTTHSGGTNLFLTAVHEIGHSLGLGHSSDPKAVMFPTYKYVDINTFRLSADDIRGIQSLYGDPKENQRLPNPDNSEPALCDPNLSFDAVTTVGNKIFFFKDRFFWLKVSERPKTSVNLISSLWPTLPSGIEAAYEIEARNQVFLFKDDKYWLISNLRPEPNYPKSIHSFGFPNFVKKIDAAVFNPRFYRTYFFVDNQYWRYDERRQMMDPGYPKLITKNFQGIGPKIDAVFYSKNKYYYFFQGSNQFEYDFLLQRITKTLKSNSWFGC | 36%
MMP-7 (protein) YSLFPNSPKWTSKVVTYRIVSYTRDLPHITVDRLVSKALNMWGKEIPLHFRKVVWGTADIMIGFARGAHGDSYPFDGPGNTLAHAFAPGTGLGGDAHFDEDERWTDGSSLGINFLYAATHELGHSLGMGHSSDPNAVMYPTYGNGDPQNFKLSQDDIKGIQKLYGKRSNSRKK | 32%
Neutrophil Elastase (protein) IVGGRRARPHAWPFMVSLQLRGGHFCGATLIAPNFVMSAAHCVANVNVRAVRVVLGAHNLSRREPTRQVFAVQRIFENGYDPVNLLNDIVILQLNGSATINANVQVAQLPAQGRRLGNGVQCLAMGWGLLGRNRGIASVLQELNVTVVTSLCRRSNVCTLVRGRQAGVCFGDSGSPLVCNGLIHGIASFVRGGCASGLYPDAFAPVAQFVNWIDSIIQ | 32%
Matriptase (protein) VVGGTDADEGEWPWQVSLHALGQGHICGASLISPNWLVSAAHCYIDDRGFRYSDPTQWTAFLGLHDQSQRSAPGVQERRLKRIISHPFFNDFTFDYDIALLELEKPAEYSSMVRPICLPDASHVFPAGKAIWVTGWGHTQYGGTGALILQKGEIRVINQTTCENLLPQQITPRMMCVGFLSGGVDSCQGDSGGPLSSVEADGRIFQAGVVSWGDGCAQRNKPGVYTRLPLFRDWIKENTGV | 0%
